Reported Maximum MFI by item:
- TARGET_OR_SYSTEM: T1, human B7-H4 (human, UniProt Q7Z7D3 25-282)
- T1 construct: whole, on cells; also called VTCN1; SK-BR-3 cell line highly expressing B7-H4
- T1 sequence (looked up): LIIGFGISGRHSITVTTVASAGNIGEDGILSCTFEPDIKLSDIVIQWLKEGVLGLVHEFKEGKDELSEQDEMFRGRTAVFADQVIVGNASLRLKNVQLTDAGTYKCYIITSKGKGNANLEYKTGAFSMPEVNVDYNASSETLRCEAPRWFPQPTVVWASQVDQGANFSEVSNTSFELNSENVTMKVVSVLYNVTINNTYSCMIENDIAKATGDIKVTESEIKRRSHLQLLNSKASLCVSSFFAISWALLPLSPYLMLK
- MEASUREMENT_PROTOCOL: FACS, SK-BR-3 cells [A]

BINDER: PR001476 (antibody, human IgG1, kappa, V domains shown, anti-B7-H4 H2L2 recombinant fully human antibody, human IgG1 / kappa; also called 80C8-2E9 clone) VH: QVQLVESGGGVVQPGRSLRLSCAASGFTFRSFGMHWVRQAPGKGLEWVAVISYDGSNEYYADSVKGRFIISRDNSKDTLYLQMNSLRAGDTAVYYCAKGGGLRWYFAYWGQGTLVTVSS VL: EIVMTQSPATLSVSPGERATLSCRASQSISSNLGWYQQKPGQAPRLLIYGASTRATGIPARFSGSGSGTEFTLTISSLQSEDFAVYYCQQYNSWPPLTFGGGTKVEIKR
UNIT_ANNOTATION: MFI
Maximum MFI: 239000

BINDER: PR002037 (antibody, human IgG1, kappa, V domains shown, also called 1025_B-1H11 clone) VH: QVQLVQSGAEVKKPGSSMRVSCKASEDTFSSYAISWVRQAPGQGLEWMGGTAPIFGTTNYAQKFQGRVTITADKSTSTAYMELSSLRSEDTAVYYCARGGPYFDYWGQGTLVTVSS VL: EIVMTQSPASLSVSPGERATLSCRASQSVSSNLAWYQQKPGQAPRLLIYGASTRATGIPARVSGGGSGTEFTLTISSLQSEDFAVYCCQQYKNWPFTFGPGTKLEIKR
UNIT_ANNOTATION: MFI
Maximum MFI: 257000

BINDER: control antibody 1 (PR000157) (antibody, V domains shown, also called Positive control 1; 1D11.v1.9varC2) VH: EVQLVQSGAEVKKPGASVKVSCKASGYTFTSYWIGWVRQAPGQGLEWIGDIYPGGGYTNYNEKFKGRVTITRDTSTSTAYLELSSLRSEDTAVYYCARLAGSSYRGAMDSWGQGTLVTVSS VL: DIQMTQSPSSLSASVGDRVTITCKASQGFNKYVAWYQQKPGKAPKLLIYYTSTLQPGVPSRFSGSGSGRDYTLTISSLQPEDFATYYCLQYGDLLYAFGQGTKVEIKR
UNIT_ANNOTATION: MFI
Maximum MFI: 266000

BINDER: PR002410 (antibody, human IgG1, kappa, V domains shown, anti-B7-H4 H2L2 recombinant fully human antibody, human IgG1 / kappa; also called PR002037 variant) VH: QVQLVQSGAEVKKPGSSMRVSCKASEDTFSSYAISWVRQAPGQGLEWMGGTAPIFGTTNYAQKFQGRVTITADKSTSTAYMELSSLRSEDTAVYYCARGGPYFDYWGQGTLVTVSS VL: EIVMTQSPASLSVSPGERATLSCRASQSVSSNLAWYQQKPGQAPRLLIYGASTRATGIPARVSGGGSGTEFTLTISSLQSEDFAVYYCQQYKNWPFTFGPGTKLEIKR
UNIT_ANNOTATION: MFI
Maximum MFI: 245000
